Experiment: folding enthalpy; higher = less favourable; fluorescence melt of hairpins on a sequencing array, two-state fit
Conditions: sodium 0.088 M
Assign MET whenever folding enthalpy does not fall below -20 kcal/mol; assign NOT MET whenever it does.

Enquiry: Given GATCACCCTAGTGATC ((((((....)))))) , state whether its folding enthalpy is at least -20 kcal/mol.
Return: NOT MET

Enquiry: Given GGCAACTCGAAAGAGGCC (((..(((....)))))) , state whether its folding enthalpy is at least -20 kcal/mol.
Return: NOT MET

Enquiry: Given GATCGGACACCCGATC ((((((....)))))) , state whether its folding enthalpy is at least -20 kcal/mol.
Return: NOT MET

Enquiry: Given GATCCTTAGAAGGATC ((((((....)))))) , state whether its folding enthalpy is at least -20 kcal/mol.
Return: NOT MET

Enquiry: Given GTCTTCACGAAAGTGGAC (((..(((....)))))) , state whether its folding enthalpy is at least -20 kcal/mol.
Return: MET

Enquiry: Given GCTGAGCGAAAGCGCCGC ((.(.((....)).).)) , state whether its folding enthalpy is at least -20 kcal/mol.
Return: MET

Enquiry: Given GATCCCATCGGGGATC ((((((....)))))) , state whether its folding enthalpy is at least -20 kcal/mol.
Return: NOT MET

* * *

Test: folding enthalpy; higher = less favourable; fluorescence melt of hairpins on a sequencing array, two-state fit
Conditions: sodium 0.088 M
# folding enthalpy annotations
Give just the number in kcal/mol; leave the unit off.

Guide cases for folding enthalpy, answers given:
GCGACTGGAAACGGTCGC (((((.(....).))))) :: -46.3
GTACGACGAAAGTCATAC (((.(((....))).))) :: -19
GTCTGTGGAAACATAGGC (.((.((....)).)).) :: -16.4
GCGGCGACCGC ((((...)))) :: -16
GCGATTCGAAAGAACGC (((.(((....)))))) :: -30.2

Enquiry: Need folding enthalpy, item GCACCGCGAAAGCGTAGC ((..(((....)))..))
Return: -12.3

Enquiry: Need folding enthalpy, item GCGTCGCGAAAGCCAGGC ((.(.((....)).).))
Return: -10.6

Enquiry: Need folding enthalpy, item GTTATGGGAAACCACAAC (((.(((....))).)))
Return: -14.9

Enquiry: Need folding enthalpy, item GCAAACGAAAGTTCTTGC ((((((....)))..)))
Return: -10

Enquiry: Need folding enthalpy, item GCCATTGGAAACAATGGC (((((((....)))))))
Return: -43.9

Enquiry: Need folding enthalpy, item CGTAACGGAAACGTACG (((.(((....))))))
Return: -31

Enquiry: Need folding enthalpy, item GGAAGCCGAAAGGCGTCC (((.(((....))).)))
Return: -14.6

Enquiry: Need folding enthalpy, item GACGACCCGAAAGGGGTC (((..(((....))))))
Return: -10.1

Enquiry: Need folding enthalpy, item GTAAGTCGAAAGACCTAC (((.(((....))).)))
Return: -17

Enquiry: Need folding enthalpy, item GCGTTCGGAAACGGACGC ((((.((....)).))))
Return: -40.2

Enquiry: Need folding enthalpy, item GGCCTCGAAAGAGTGCC ((((((....))).)))
Return: -37.7

Enquiry: Need folding enthalpy, item GATCCACCGTTGGATC ((((((....))))))
Return: -36.5

Enquiry: Need folding enthalpy, item GCGTGCGCACGC ((((....))))
Return: -45.7

Enquiry: Need folding enthalpy, item GTTTCTGGAAACGGAAAC (((((.(....).)))))
Return: -31.8
